Hey, just so you know, these numbers are from PubChem BioAssay AID1259321.

measuredTarget: UniProt:P20393
Sequence (P20393 whole entry, looked up): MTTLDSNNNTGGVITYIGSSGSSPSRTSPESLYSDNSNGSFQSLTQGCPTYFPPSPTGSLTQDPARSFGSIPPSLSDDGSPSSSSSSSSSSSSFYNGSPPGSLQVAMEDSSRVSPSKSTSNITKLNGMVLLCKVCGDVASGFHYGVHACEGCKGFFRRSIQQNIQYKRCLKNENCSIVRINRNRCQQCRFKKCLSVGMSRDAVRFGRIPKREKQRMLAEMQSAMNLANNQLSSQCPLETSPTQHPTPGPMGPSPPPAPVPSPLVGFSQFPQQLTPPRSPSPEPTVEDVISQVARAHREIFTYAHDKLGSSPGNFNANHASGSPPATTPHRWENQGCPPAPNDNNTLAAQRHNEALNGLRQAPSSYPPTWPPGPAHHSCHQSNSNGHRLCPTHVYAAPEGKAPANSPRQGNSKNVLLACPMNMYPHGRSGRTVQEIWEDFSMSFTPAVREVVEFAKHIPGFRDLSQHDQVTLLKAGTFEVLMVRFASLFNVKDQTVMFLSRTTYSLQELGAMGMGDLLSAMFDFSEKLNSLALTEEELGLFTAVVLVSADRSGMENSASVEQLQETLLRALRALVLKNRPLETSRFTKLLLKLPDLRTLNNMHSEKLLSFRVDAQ
testName: modulators of Rev-erb alpha DNA binding, dose response, biochemical, FITC-DNA, fluorescence polarization (AID 1259321)
Activity calls are given as the source filed them.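 Rule for the calls: active = half-maximal concentration for changing protein binding to DNA, from the fitted dose curve, below 10 micromolar; inactive = the rest.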
Outcomes you can answer with include only these: active, inactive

Hi team, can someone confirm the assay call for COc1ccc(NC(=O)c2ccc(C(=O)c3cc(OC)ccc3OC)cc2)cc1 ?
active

How was COc1cc(-c2nn3c(COc4ccccc4)nnc3s2)cc(OC)c1OC classified in this test?
active

Dear all, I need the recorded test outcome for Cc1nc(N2CCC(C)CC2)c2c(C)c(C(=O)Nc3ccc(C)c(F)c3)sc2n1 , thank you.
inactive

Test call, this compound: Cc1cc2c(s1)c1cnn(Cc3c(Cl)ccc(C)c3F)c(=O)c1n2C
inactive

Call for entry CN(C)c1ccc2nc3c(=O)[nH]c(=O)nc-3n(CC(O)C(O)C(O)CO)c2c1 (stereo unspecified) :
active

For CCc1cc2c(C)ccc(C)c2nc1SCC(=O)Nc1c[nH]c(=O)[nH]c1=O , which call appears in the assay record?
inactive

// outcome(item) with item = COc1cc(OC)cc(-c2c(Sc3ccccc3)c3cc(-c4ccc(SC)cc4)ccc3n2C)c1
active

// return assay outcome for COc1ccc(-n2ncc3c(N4CCc5ccccc54)ncnc32)cc1
active

Record lookup: outcome of this test for O=C1c2cccc3c(N4CCCCC4)ccc(c23)C(=O)N1c1cccc(O)c1 ?
inactive

Each compound tested received a call. Report the one for O=C(CSc1ncnc2c1oc1ccccc12)Nc1ccccc1F .
active

Status in this test for O=C(Cn1c(=S)[nH]c2ccccc2c1=O)NCCc1ccccc1 ?
active

Status in this test for COc1ccc(Sc2nc3ccccc3n3c(C(F)(F)F)nnc23)cc1 ?
active

Tell me the assay call for O=[N+]([O-])c1ccc(N(c2ccccc2)c2ccccc2)cc1 please.
active

Returns: the outcome recorded for COc1ccc(CNC(=O)CCCn2c(=S)[nH]c3cc4c(cc3c2=O)OCO4)cc1 in this assay.
active

What did the test return for Cc1nc(SCC(=O)NCCc2ccccc2)c2oc3ccccc3c2n1 ?
active

Fill in: this test's call for Nc1ccc2nc3c(=O)n(CCc4ccccc4)c(=O)[nH]c3nc2c1 is ___
active

Hey, what did the test say about O=c1c2ccccc2sc2ccc(Cl)cc12 ?
active

What call does the record list for CCOC(=O)COc1c(Cl)cc(C2NC(=S)NC(c3ccccc3)=C2C(C)=O)cc1OCC (stereo unspecified) ?
active

Name the outcome recorded for CCC(=O)c1ccc(OCc2ccc(C(=O)c3ccccc3)cc2)cc1 in the assay.
active

What was the test verdict on Cc1ccc2c(c1)c(/C=C/c1cc[n+](C)cc1)c(C)n2C ?
inactive

Identify the outcome logged in this assay for the compound shown: C=CCn1c(=NC(=O)c2ccco2)sc2cc(C(=O)OC)ccc21
inactive

Called result for Cc1[nH]nc2nc(SCC(=O)NC3CCCCC3)n(-c3ccc(Br)cc3)c(=N)c12
active

Write down the call the test reported for this compound. Item: Cc1cccc(N2C(=O)c3cccc4c(N)ccc(c34)C2=O)c1
active

// param item: O=C(N=c1ccn(-c2nc3ccccc3nc2NS(=O)(=O)c2ccccc2)cc1)c1cccs1 ; yields the recorded call
inactive

What did this assay record as the result for Cn1c(=O)c(Nc2ccc(O)cc2)c2c3c(cccc31)C(=O)c1ccccc1-2 ?
active

Give the logged outcome of this assay for the following compound: Cc1cccc(Nc2nn3c(=O)c4ccccc4nc3s2)c1
active

I would be grateful if you could indicate the recorded call for O=C(OCCN1C(=O)c2cccc3c(N4CCOCC4)ccc(c23)C1=O)c1ccc(Cl)cc1 .
active

Just curious, what result did COc1ccc(-c2ccc(-c3noc(-c4ccccc4F)n3)c(OC)n2)cc1 get here?
active

Recorded call for CCOc1ccc2nc(SCC(=O)N3c4ccccc4Sc4ccccc43)c(C#N)cc2c1 ?
active

// param item: CCOC(=O)c1c(NC(=O)CSc2nc3ccccc3s2)sc(C(C)=O)c1C ; yields the recorded call
inactive

Name the outcome recorded for CC1=NN(c2ccccc2)C(=O)/C1=C\C=C1/N(C)c2ccccc2C1(C)C in the assay.
inactive
